# targetEntity: T1, human activated protein C (human, UniProt P04070 43-197; P04070 212-461)
# T1 construct: In the plasma assays aPC is generated in human plasma with Protac; also called aPC; haPC
# testMethodNotes: KD ELISA ranking, direct antigen coating ELISA of Fab
Kindly state Bmax for each of the entries shown.

Previously resolved entries follow.
>  <binder>
R2-24H1 (Fab, V domains shown, Combinatorial mutant Fab of HAPC-14; also called combinatorial mutant No. 8) VH: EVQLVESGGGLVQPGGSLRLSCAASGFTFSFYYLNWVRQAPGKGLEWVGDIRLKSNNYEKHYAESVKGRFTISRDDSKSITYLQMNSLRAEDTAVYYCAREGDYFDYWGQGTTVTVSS VL: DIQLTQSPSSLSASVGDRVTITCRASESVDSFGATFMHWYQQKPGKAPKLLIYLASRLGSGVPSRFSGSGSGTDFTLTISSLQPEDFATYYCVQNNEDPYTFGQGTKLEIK

>  <assayReadout>
Bmax

>  <result>
1.25

$$$$
>  <binder>
R2-22A10 (Fab, V domains shown, Combinatorial mutant Fab of HAPC-14; also called combinatorial mutant No. 9) VH: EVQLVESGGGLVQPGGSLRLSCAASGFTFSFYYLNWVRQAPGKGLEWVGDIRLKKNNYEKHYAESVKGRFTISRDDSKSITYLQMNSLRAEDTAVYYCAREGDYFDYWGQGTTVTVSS VL: DIQLTQSPSSLSASVGDRVTITCRASESVDSFGATFMHWYQQKPGKAPKLLIYLASRLESGVPSRFSGSGSGTDFTLTISSLQPEDFATYYCVQNNEDPYTFGQGTKLEIK

>  <assayReadout>
Bmax

>  <result>
1.01

$$$$
>  <binder>
R2-25G5 (Fab, V domains shown, Combinatorial mutant Fab of HAPC-14; also called combinatorial mutant No. 3) VH: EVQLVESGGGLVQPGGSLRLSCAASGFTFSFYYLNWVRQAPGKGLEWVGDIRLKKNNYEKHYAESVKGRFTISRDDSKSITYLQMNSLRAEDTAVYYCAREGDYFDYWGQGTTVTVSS VL: DIQLTQSPSSLSASVGDRVTITCRASESVDSFGATFMHWYQQKPGKAPKLLIYLASWLPSGVPSRFSGSGSGTDFTLTISSLQPEDFATYYCVQNNEDPYTFGQGTKLEIK

>  <assayReadout>
Bmax

>  <result>
1.04

$$$$

With those in mind, consider the next binder.
# binder R2-24F3 (Fab, V domains shown, Combinatorial mutant Fab of HAPC-14; Printed CDRs are the same as those of R2-32E6; also called combinatorial mutant No. 1) VH: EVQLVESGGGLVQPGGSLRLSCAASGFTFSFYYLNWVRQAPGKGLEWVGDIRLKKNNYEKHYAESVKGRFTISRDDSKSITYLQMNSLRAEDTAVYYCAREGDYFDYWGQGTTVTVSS VL: DIQLTQSPSSLSASVGDRVTITCRASESVDSFGATFMHWYQQKPGKAPKLLIYLASWLGSGVPSRFSGSGSGTDFTLTISSLQPEDFATYYCVQNNEDPYTFGQGTKLEIK ; its Bmax = 1.37
